# target or system: CX3CR1 (Homo sapiens, UniProt P49238)
# Construct: purchased Promega (in-house HiBiT-GPCR construct library, NanoBRET)
# Sequence (P49238 whole entry): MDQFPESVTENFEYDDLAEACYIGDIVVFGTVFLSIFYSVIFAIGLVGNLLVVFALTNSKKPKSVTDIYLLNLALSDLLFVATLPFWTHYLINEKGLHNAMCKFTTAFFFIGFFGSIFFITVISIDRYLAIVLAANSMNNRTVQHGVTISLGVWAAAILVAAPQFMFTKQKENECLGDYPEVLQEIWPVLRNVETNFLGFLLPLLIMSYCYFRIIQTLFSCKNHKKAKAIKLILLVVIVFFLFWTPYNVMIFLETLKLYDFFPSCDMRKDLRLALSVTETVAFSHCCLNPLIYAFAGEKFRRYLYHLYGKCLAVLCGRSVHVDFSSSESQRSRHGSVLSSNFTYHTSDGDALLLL
# experiment: NanoBRET screen HiBiT-CX3CR1 in HEK293
# Type: binding
# condition notes: CX3CR1; tracer 1μM
Overview of recorded NanoBRET Fold Response for various molecules
Keep it simple and answer with nothing but the number.

These recorded examples may help you get a feel for the data.
CC(C)N(CC[C@H](c1ccccc1)c1cc(CCNC(=O)CCOCCOCCOCCOCCNC(=O)CCc2ccc3n2[B-](F)(F)[N+]2=C(c4ccc[nH]4)C=CC2=C3)ccc1O)C(C)C | 1.06
Cc1nc2n(c(=O)c1CCN1CCC(c3noc4cc(F)ccc34)CC1)CCCC2OC(=O)NCCOCCOCCOCCOCCNC(=O)CCc1ccc2n1[B-](F)(F)[N+]1=C(c3ccc[nH]3)C=CC1=C2 (centres unmarked) | 1.02
COc1ccccc1N1CCN(CCCCN2C(=O)c3ccc(CNC(=O)CCOCCNC(=O)c4ccc(CNC(=O)CCc5ccc6n5[B-](F)(F)[N+]5=C(c7ccc[nH]7)C=CC5=C6)cc4)cc3C2=O)CC1 | 1.01

## Task Suppose we examine the molecule `COc1ccccc1N1CCN(CCCCN2C(=O)c3ccc(CNC(=O)CCOCCOCCOCCOCCNC(=O)CCc4ccc5n4[B-](F)(F)[N+]4=C(c6ccc[nH]6)C=CC4=C5)cc3C2=O)CC1` ; what NanoBRET Fold Response value has been reported?
## Result 0.86

## Task Suppose we examine the molecule `O=C(CCOCCOCCOCCOCCNC(=O)CCc1ccc2n1[B-](F)(F)[N+]1=C(c3ccc[nH]3)C=CC1=C2)NCCCN1CCN(C2=Nc3ccccc3Oc3ccc(Cl)cc32)CC1` ; what NanoBRET Fold Response value has been reported?
## Result 0.91

* * *

# target or system: SSTR3 (Homo sapiens)
# Construct: purchased Promega (in-house HiBiT-GPCR construct library, NanoBRET)
# Sequence (P32745 whole entry): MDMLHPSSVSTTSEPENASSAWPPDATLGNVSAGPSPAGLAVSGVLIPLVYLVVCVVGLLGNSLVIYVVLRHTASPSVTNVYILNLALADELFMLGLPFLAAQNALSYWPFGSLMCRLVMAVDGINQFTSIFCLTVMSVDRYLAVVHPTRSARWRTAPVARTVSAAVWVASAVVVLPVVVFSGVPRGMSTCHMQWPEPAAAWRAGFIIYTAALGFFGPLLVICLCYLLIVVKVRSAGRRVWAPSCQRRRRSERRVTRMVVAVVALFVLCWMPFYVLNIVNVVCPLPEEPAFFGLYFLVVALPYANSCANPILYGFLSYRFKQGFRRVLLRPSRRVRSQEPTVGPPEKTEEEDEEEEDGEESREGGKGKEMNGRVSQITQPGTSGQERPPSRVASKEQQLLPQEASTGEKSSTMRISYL
# experiment: NanoBRET screen HiBiT-SSTR3 in HEK293
# Assay type: binding
# condition notes: SSTR3; tracer 0.1μM
reported property: NanoBRET Fold Response
Keep it simple and answer with nothing but the number.

These recorded examples may help you get a feel for the data.
N#CN=C(NCCCOc1cccc(CN2CCCCC2)c1)NCCNC(=O)CCOCCOCCOCCOCCNC(=O)CCc1ccc2n1[B-](F)(F)[N+]1=C(c3ccc[nH]3)C=CC1=C2 | 1.03
Cc1nc2n(c(=O)c1CCN1CCC(c3noc4cc(F)ccc34)CC1)CCCC2OC(=O)NCCOCCOCCOCCOCCNC(=O)CCc1ccc2n1[B-](F)(F)[N+]1=C(c3ccc[nH]3)C=CC1=C2 (stereo not drawn) | 0.92

## Task Lookup: NanoBRET Fold Response / SSTR3 (Homo sapiens) / `Cc1cc2c(s1)Nc1ccccc1N=C2N1CCN(CCCNC(=O)CCOCCOCCOCCOCCNC(=O)CCc2ccc3n2[B-](F)(F)[N+]2=C(c4ccc[nH]4)C=CC2=C3)CC1`
## Result 0.99

* * *

# target or system: GNRHR (Homo sapiens)
# Construct: purchased Promega (in-house HiBiT-GPCR construct library, NanoBRET)
# Sequence (P30968 whole entry): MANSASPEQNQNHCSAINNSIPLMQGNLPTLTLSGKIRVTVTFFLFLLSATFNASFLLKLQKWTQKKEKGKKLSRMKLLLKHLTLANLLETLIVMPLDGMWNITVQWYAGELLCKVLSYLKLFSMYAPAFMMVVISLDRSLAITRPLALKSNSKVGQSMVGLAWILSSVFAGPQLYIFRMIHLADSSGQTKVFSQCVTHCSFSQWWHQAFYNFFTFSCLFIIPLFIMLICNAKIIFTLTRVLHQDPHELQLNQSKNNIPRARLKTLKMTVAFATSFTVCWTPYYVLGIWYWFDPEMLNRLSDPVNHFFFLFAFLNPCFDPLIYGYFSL
# experiment: NanoBRET screen HiBiT-GNRHR in HEK293
# Type: binding
# condition notes: GNRHR; tracer 1μM
Overview of recorded NanoBRET Fold Response for various compounds
Keep it simple and answer with nothing but the number.

These recorded examples may help you get a feel for the data.
Cc1nc2n(c(=O)c1CCN1CCC(c3noc4cc(F)ccc34)CC1)CCCC2OC(=O)NCCOCCOCCOCCOCCNC(=O)CCc1ccc2n1[B-](F)(F)[N+]1=C(c3ccc[nH]3)C=CC1=C2 (centres unmarked) | 0.97
CC(C)N(CC[C@H](c1ccccc1)c1cc(CCNC(=O)c2ccc(CNC(=O)CCc3ccc4n3[B-](F)(F)[N+]3=C(c5ccc[nH]5)C=CC3=C4)cc2)ccc1O)C(C)C | 1.07
O=C(CCOCCOCCOCCOCCNC(=O)CCc1ccc2n1[B-](F)(F)[N+]1=C(c3ccc[nH]3)C=CC1=C2)NCCCN1CCN(C2=Nc3ccccc3Oc3ccc(Cl)cc32)CC1 | 0.89
N#CN=C(NCCCOc1cccc(CN2CCCCC2)c1)NCCNC(=O)CCOCCOCCOCCOCCNC(=O)CCc1ccc2n1[B-](F)(F)[N+]1=C(c3ccc[nH]3)C=CC1=C2 | 0.98
O=C(CCc1ccc2n1[B-](F)(F)[N+]1=C(c3ccc[nH]3)C=CC1=C2)NCc1ccc(C(=O)NCCOCCC(=O)N[C@@H]2CC[C@@]3(O)[C@H]4Cc5ccc(O)c6c5[C@@]3(CCN4CC3CC3)[C@H]2O6)cc1 [Naltrexone-3-NB590] | 0.99

## Task Suppose we examine the compound `CC(C)N(CC[C@H](c1ccccc1)c1cc(CCNC(=O)CCOCCOCCOCCOCCNC(=O)CCc2ccc3n2[B-](F)(F)[N+]2=C(c4ccc[nH]4)C=CC2=C3)ccc1O)C(C)C` ; what NanoBRET Fold Response value has been reported?
## Result 1.15
